# experimental_target: RAC-beta serine/threonine-protein kinase (Homo sapiens, UniProt P31751)
# Sequence (P31751 whole entry): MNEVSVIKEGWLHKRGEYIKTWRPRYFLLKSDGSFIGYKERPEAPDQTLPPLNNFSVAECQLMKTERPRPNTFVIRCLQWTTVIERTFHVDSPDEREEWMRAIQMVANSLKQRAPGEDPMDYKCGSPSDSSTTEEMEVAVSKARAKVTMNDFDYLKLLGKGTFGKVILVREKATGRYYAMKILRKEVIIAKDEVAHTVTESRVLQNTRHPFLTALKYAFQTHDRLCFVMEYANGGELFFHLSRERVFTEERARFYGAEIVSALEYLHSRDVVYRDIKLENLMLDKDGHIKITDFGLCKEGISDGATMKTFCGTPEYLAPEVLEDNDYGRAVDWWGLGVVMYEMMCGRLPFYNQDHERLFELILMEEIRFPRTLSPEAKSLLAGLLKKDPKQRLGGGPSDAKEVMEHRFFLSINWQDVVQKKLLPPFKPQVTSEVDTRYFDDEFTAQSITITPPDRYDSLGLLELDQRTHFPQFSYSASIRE
pIC50: −log10 of the molar value.
endpoint_name: pIC50

[ask] If you can, please state the reported pIC50 value of Nc1ncnc2c1cnn2C1CCN(Cc2ccc(-c3ncc(-c4ncccn4)cc3-c3ccccc3)cc2)CC1 .
[reply] 7.21

[ask] Now consider Nc1nnc(-c2cnc(-c3ccc(CN4CCC(n5cc(-c6cnccn6)cn5)CC4)cc3)c(-c3ccccc3)c2)s1 and answer again.
[reply] 7.29

[ask] Consider next the molecule Nc1nnc(-c2cnc(-c3ccc(CN4CCC(n5cc(-c6ccccn6)cn5)CC4)cc3)c(-c3ccccc3)c2)s1 in the same way.
[reply] 7.05

[ask] And what about the molecule Nc1ncnc2c1cnn2C1CCN(Cc2ccc(-c3ncc(-c4ccccn4)cc3-c3ccccc3)cc2)CC1 ?
[reply] 6.43

1: Nc1nnc(-c2cnc(-c3ccc(CN4CCC(c5n[nH]c(-c6ccccn6)n5)CC4)cc3)c(-c3ccccc3)c2)s1
2: Nc1nnc(-c2cnc(-c3ccc(CN4CCC(n5c(=O)[nH]c6ncccc65)CC4)cc3)c(-c3ccccc3)c2)s1
[ask] Please indicate which item has the smaller measured pIC50: 1 versus 2 Write down the label attached to your selection.
[reply] 2

// data source = BindingDB's records for doi:10.1016/j.bmcl.2007.12.040
